molecular target: human noradrenaline transporter (hNET) (Homo sapiens); construct: expressed in transfected cells; experiment: Assay of monoamine uptake: inhibition of noradrenaline uptake; type: cell-based
Sequence (P23975 whole entry): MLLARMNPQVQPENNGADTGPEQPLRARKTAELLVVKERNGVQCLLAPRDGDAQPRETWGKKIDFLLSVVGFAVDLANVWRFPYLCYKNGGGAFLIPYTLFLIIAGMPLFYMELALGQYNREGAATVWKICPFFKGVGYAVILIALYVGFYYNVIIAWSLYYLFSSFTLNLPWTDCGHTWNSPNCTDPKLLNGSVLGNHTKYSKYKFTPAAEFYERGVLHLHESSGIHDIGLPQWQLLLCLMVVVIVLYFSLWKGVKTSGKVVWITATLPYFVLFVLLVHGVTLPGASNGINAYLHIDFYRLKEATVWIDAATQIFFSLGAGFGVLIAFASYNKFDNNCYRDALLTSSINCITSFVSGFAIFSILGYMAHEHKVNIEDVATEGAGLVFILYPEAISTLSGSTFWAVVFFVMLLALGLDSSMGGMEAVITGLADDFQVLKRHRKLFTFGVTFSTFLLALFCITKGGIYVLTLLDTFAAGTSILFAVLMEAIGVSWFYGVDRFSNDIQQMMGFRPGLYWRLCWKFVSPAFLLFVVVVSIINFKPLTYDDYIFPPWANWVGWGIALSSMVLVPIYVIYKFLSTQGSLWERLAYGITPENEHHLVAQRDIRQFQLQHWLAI
pEC50: −log10 of the molar value.
outcomeMeasure: pEC50

## Task Given the compound c1ccc(Oc2cccc(OC3CC4CCC(C3)N4)c2)cc1 (stereo not shown) , what is its reported pEC50?
## Result 6.00 to 7.00

----------
Measured pEC50 of individual entries
target: human dopamine transporter (hDAT) (Homo sapiens, UniProt Q01959); construct: expressed in transfected cells; test: Assay of monoamine uptake: inhibition of dopamine uptake; assay type: cell-based; conditions: inhibition of dopamine uptake, Chinese Hamster Ovary cells expressing hDAT, 20 nM neurotransmitter ([3H]-labelled and non-labelled), ambient temperature; read-out: hDAT
Sequence (Q01959 whole entry): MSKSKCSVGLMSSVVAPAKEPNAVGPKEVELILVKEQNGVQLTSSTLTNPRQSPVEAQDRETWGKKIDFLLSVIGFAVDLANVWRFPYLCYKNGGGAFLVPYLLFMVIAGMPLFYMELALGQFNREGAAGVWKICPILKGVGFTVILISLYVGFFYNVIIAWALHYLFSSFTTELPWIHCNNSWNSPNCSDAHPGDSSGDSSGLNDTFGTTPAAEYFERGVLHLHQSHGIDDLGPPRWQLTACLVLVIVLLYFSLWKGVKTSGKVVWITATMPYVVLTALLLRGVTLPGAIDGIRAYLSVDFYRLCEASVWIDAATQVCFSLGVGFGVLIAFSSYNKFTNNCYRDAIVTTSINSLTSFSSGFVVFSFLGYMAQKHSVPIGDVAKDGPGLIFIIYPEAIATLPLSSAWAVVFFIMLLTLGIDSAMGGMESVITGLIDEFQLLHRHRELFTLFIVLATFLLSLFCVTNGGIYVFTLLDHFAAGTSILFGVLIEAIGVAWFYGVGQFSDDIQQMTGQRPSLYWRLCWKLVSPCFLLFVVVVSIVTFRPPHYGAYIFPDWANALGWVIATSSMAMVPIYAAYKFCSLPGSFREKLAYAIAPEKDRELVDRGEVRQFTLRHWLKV
pEC50: −log10 of the molar value.

# example entries with known answers
{"compound": "N#Cc1ccc(-c2cc(C#N)cc(OC3CC4CCC(C3)N4)c2)nc1 (stereo not drawn)", "pEC50": "< 6.00"}
{"compound": "Clc1cc(Oc2ccccc2)cc(O[C@@H]2C[C@H]3CC[C@@H](C2)N3)c1", "pEC50": "> 7.00"}
{"compound": "FC(F)(F)c1ccc(OC2CC3CCC(C2)N3)cc1-c1ccccc1 (stereo not drawn)", "pEC50": "< 6.00"}
{"compound": "FC(F)(F)c1ccccc1-c1cccc(OC2CC3CCC(C2)N3)c1 (stereo not drawn)", "pEC50": "< 6.00"}
{"compound": "N#Cc1ccc(-c2cc(C#N)cc(OC3CC4CCC(C3)N4)c2)cc1 (stereo not drawn)", "pEC50": "< 6.00"}

Here is another compound to look at.
## Task Please look up its pEC50: COc1cc(Oc2ccccc2)cc(OC2CC3CCC(C2)N3)c1F (stereo not drawn)
## Result > 7.00

----------
target: human dopamine transporter (hDAT) (Homo sapiens, UniProt Q01959); construct: expressed in transfected cells; assay: Assay of monoamine uptake: inhibition of dopamine uptake; format: cell-based
outcomeMeasure: EC50

## Task // EC50 lookup, key: c1ccc(Oc2cccc(OC3CC4CCC(C3)N4)c2)cc1 (stereo not shown) [Example 111.5]
## Result < 100 nM

----------
pEC50 values by entry
biological target: human serotonin transporter (hSERT) (Homo sapiens); construct: expressed in transfected cells; assay: Assay of monoamine uptake: inhibition of serotonin uptake; type: cell-based; details: inhibition of serotonin uptake, Chinese Hamster Ovary cells expressing hSERT, 20 nM neurotransmitter ([3H]-labelled and non-labelled), ambient temperature; read-out: hSERT
Sequence (P31645 whole entry): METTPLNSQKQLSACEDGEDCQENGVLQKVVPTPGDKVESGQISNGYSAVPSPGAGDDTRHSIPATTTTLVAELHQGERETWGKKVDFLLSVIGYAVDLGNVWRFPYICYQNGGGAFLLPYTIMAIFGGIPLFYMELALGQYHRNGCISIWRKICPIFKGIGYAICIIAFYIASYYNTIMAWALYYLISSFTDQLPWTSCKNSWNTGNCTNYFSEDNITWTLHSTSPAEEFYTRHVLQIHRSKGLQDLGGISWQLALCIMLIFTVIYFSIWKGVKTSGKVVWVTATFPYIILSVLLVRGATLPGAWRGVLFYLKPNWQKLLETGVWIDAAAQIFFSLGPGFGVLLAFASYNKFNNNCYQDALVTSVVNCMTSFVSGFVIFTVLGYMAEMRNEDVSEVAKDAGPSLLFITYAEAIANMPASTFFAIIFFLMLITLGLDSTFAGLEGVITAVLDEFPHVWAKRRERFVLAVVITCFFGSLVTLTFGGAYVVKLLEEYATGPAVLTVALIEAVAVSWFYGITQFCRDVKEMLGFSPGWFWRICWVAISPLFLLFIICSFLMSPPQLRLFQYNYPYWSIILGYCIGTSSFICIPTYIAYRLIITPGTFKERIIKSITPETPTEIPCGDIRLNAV
pEC50: −log10 of the molar value.

Here is how some compounds turned out for pEC50.
{"compound": "N#Cc1ccc(-c2cc(C#N)cc(OC3CC4CCC(C3)N4)c2)cc1 (stereo not drawn) [VI.8]", "outcomeMeasure": "pEC50", "result": "> 7.00"}
{"compound": "Clc1cc(Oc2ccccc2)cc(O[C@@H]2C[C@H]3CC[C@@H](C2)N3)c1 [IV.19]", "outcomeMeasure": "pEC50", "result": "< 6.00"}
{"compound": "FC(F)(F)c1ccc(OC2CC3CCC(C2)N3)cc1-c1ccccc1 (stereo not drawn) [VI.3]", "outcomeMeasure": "pEC50", "result": "6.00 to 7.00"}
{"compound": "COc1cc(Oc2ccccc2)cc(OC2CC3CCC(C2)N3)c1F (stereo not drawn) [IV.9]", "outcomeMeasure": "pEC50", "result": "< 6.00"}
{"compound": "N#Cc1ccc(-c2cc(C#N)cc(OC3CC4CCC(C3)N4)c2)nc1 (stereo not drawn) [Example IX.3]", "outcomeMeasure": "pEC50", "result": "> 7.00"}

Now look at this one.
## Task Give recorded pEC50 with human serotonin transporter (hSERT) (Homo sapiens) for the following compound: FC(F)(F)c1ccccc1-c1cccc(OC2CC3CCC(C2)N3)c1 (stereo not drawn) [IV.8]
## Result 6.00 to 7.00
